Target: human CRTH2 (Homo sapiens, UniProt Q9Y5Y4)
Construct: expressed in transfected cells; host or cells: L1.2 cells, pEAK expression vector, puromycin-selected
Sequence (Q9Y5Y4 1-395): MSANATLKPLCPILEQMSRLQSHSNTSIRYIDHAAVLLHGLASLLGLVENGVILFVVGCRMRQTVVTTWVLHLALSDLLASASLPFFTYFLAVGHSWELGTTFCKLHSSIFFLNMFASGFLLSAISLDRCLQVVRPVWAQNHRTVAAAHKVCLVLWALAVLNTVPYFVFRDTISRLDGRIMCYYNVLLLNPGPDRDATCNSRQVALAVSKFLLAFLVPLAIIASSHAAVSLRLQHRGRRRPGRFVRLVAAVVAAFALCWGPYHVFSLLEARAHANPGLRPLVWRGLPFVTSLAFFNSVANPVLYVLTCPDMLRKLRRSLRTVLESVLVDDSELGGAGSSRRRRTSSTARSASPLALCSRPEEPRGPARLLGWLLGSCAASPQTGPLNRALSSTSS
Assay: Measurement of Ca2+ mobilization in the human CRTH2-transfected L1.2 cell line (Assay 1)
Type: cell-based
Settings: PGD2-induced Ca2+ mobilization in CRTH2-transfected L1.2 cells; compounds as yielded by solid phase synthesis, purity about 40 to 90%; read-out: Activity class
Procedure: Human CRTH2 cDNA was amplified from human eosinophil cDNA with gene specific primers containing restriction sites for cloning into pEAK vector (Edge Bio Systems). The human CRTH2 cDNA was cloned into the mammalian expression vector pEAK. This expression plasmid (40 μg) was transfected into L1.2 cells, at a cell density of 1×10^7 cells/500 μl, by using electroporation apparatus (Gene Pulser II, BioRad) at 250V/1,000 μF. […]
measured metric: IC50

CN(CC(=O)NC1CCCC1)c1nc(Cc2ccc(NC(=O)NCCc3ccccc3)cc2)nc(Cl)c1CC(=O)O :: 10 to 100 nM
CN(C)c1nc(Cc2ccc(NC(=O)c3ccc4ccccc4n3)cc2)nc(N2CCOCC2)c1CC(=O)O :: > 500 nM
CN(CC(=O)NC1CCCC1)c1nc(Cc2ccc(NC(=O)CCc3ccccc3)cc2)nc(Cl)c1CC(=O)O :: < 10 nM
CN(C)c1nc(Cc2ccc(NC(=O)c3ccc(Cl)cc3)cc2)ncc1CC(=O)O :: < 10 nM
CN(C)c1nc(Cc2ccc(NC(=O)c3ccc(Cl)cc3)cc2)nc(Cl)c1CC(=O)O :: < 10 nM
COc1cccc(C(=O)Nc2ccc(Cc3ncc(CC(=O)O)c(N(C)C)n3)cc2)c1 :: 10 to 100 nM
COc1nc(Cc2ccc(NC(=O)c3ccc4ccccc4c3)cc2)nc(Cl)c1CC(=O)O :: < 10 nM
O=C(O)Cc1c(Cl)nc(Cc2ccc(NC(=O)c3ccc4ccccc4c3)cc2)nc1N1CCC[C@H]1C(=O)O :: 10 to 100 nM
CN(C)c1nc(Cc2ccc(NC(=O)c3cccc(-c4ccccc4)c3)cc2)nc(N2CCCC2)c1CC(=O)O :: 10 to 100 nM
CN(CC(=O)NC1CCCC1)c1nc(Cc2ccc(NC(=O)c3ccc(Cl)cc3)cc2)nc(Cl)c1CC(=O)O :: < 10 nM

[in] human CRTH2 (Homo sapiens, UniProt Q9Y5Y4) / IC50 / `CC(=O)Nc1ccc(Cc2nc(Cl)c(CC(=O)O)c(N(C)CC(=O)NC3CCCC3)n2)cc1` : value?
[out] > 500 nM

[in] Under human CRTH2 (Homo sapiens, UniProt Q9Y5Y4): IC50 value of O=C(O)Cc1c(Cl)nc(Cc2ccc(NC(=O)c3ccc4ccccc4c3)cc2)nc1N1CCC(O)C1 (stereo not shown) ?
[out] < 10 nM

[in] Quick check: IC50 on human CRTH2 (Homo sapiens, UniProt Q9Y5Y4), item `COc1cccc(C(=O)Nc2ccc(Cc3nc(Cl)c(CC(=O)O)c(N(C)C)n3)cc2)c1` ?
[out] < 10 nM

[in] Field: IC50 (human CRTH2 (Homo sapiens, UniProt Q9Y5Y4)). Entry: `CN(C)c1nc(Cc2ccc(NC(=O)c3ccc(C(F)(F)F)cc3)cc2)nc(N2CCCC2)c1CC(=O)O`
[out] 10 to 100 nM

[in] Query IC50 on human CRTH2 (Homo sapiens, UniProt Q9Y5Y4) for `COCC(=O)Nc1ccc(Cc2ncc(CC(=O)O)c(N3CCCC3)n2)cc1`
[out] > 500 nM

[in] Look up IC50 with human CRTH2 (Homo sapiens, UniProt Q9Y5Y4) for this compound: `CN(C)c1nc(Cc2ccc(NC(=O)OCc3ccc(C(F)(F)F)cc3)cc2)ncc1CC(=O)O`
[out] < 10 nM

[in] Query IC50 on human CRTH2 (Homo sapiens, UniProt Q9Y5Y4) for `CCc1nc(Cc2ccc(NC(=O)c3ccc4ccccc4c3)cc2)nc(N(C)C)c1CC(=O)O`
[out] < 10 nM

[in] // lookup IC50 | system=human CRTH2 (Homo sapiens, UniProt Q9Y5Y4) | key= `Cc1nc(Cc2ccc(NC(=O)/C=C/c3ccccc3)cc2)nc(N(C)C)c1CC(=O)O`
[out] < 10 nM

[in] State its IC50 on human CRTH2 (Homo sapiens, UniProt Q9Y5Y4): CC(c1ccc(NC(=O)c2ccc(Cl)cc2)cc1)c1ncc(CC(=O)O)c(N(C)C)n1 (stereo not shown)
[out] < 10 nM

[in] Request body: readout IC50, system human CRTH2 (Homo sapiens, UniProt Q9Y5Y4), query `Cc1nc(Cc2ccc(NC(=O)c3ccc4ccccc4c3)cc2)nc(N2CCCC2)c1CC(=O)O` . Return the value.
[out] < 10 nM

[in] Record lookup: for human CRTH2 (Homo sapiens, UniProt Q9Y5Y4), what IC50 belongs to `COc1ccc(C(=O)Nc2ccc(Cc3nc(Cl)c(CC(=O)O)c(N(C)C)n3)cc2)cc1OC` ?
[out] 10 to 100 nM

[in] Form entry - test system: human CRTH2 (Homo sapiens, UniProt Q9Y5Y4); read-out: IC50; compound: `CCN(C)c1nc(Cc2ccc(NC(=O)c3ccc4ccccc4c3)cc2)nc(Cl)c1CC(=O)O`
[out] < 10 nM

[in] Look up IC50 with human CRTH2 (Homo sapiens, UniProt Q9Y5Y4) for this compound: `CN(C)c1nc(Cc2ccc(NC(=O)c3ccccc3Oc3ccccc3)cc2)nc(N2CCCC2)c1CC(=O)O`
[out] > 500 nM

[in] Request body: readout IC50, system human CRTH2 (Homo sapiens, UniProt Q9Y5Y4), query `CCN(CC)c1nc(Cc2ccc(NC(=O)c3ccc4ccccc4c3)cc2)nc(Cl)c1CC(=O)O` . Return the value.
[out] 10 to 100 nM
